Reference source for all entries: ChEMBL document CHEMBL2169826

Reported pIC50 by item:
test: Inhibition of osteoclastogenesis in human bone marrow-derived stem cells assessed as reduction of pit formation by measuring TRACP5b activity after 7 days by bone TRAP assay; type: functional; settings: 168 h
Bear in mind: pIC50 is minus log10 of a mol/L concentration; give just that figure.

| compound | pIC50 |
| --- | --- |
| CC(C)(F)C[C@H](N[C@@H](c1ccc(-c2ccc(S(C)(=O)=O)cc2)cc1)C(F)(F)F)C(=O)NC1(C#N)CC1 [ODANACATIB] | 7.00 |

// query State, in one line, measured pIC50 of "COc1cccc2c3c([nH]c12)CCN(C(=O)[C@@H]1CCCC[C@H]1C(=O)NC1(C#N)CC1)C3"
// result 7.49

// query State, in one line, measured pIC50 of CCCN1CCN(c2ccc(C(=O)NC3(C(=O)NCC#N)CCCCC3)cc2)CC1 [BALICATIB]
// result 7.58

// query State, in one line, measured pIC50 of "COc1ccc(N2CCN(C(=O)[C@@H]3CCCC[C@H]3C(=O)NC3(C#N)CC3)CC2)cc1OC"
// result 6.90

// query State, in one line, measured pIC50 of "COc1ccc(N2CCN(C(=O)[C@@H]3CCCC[C@H]3C(=O)NC3(C#N)CC3)[C@H](C)C2)cc1OC"
// result 7.40

====

experiment: physchem; details: buffer, pH 7.4
Reported logD by item:
Response field accepts a number only; no unit should be typed.

Recorded results for 2 compounds are shown here.
| structure_string | logD |
| --- | --- |
| N#CCNC(=O)[C@@H]1CCCC[C@H]1C(=O)N1CCN(c2ccc(C#N)cc2)CC1 | 1.8 |
| N#CCNC(=O)[C@@H]1CCCC[C@H]1C(=O)N1CCN(c2ccc(F)cc2)CC1 | 1.9 |

// query State, in one line, measured logD of "COc1ccc(N2CCN(C(=O)[C@@H]3CCCC[C@H]3C(=O)NC3(C#N)CC3)[C@H](C)C2)cc1OC"
// result 1.9

// query State, in one line, measured logD of "Cc1nnc(C)c2cc(N3CCN(C(=O)[C@@H]4CCCC[C@H]4C(=O)NC4(C#N)CC4)[C@H](C)C3)ccc12"
// result 1.9

====

assay: Volume of distribution at steady state in rat; format: ADME, organism-based; conditions: in vivo, read-out: Vdss
assay_readout: Vd (L/kg)
Field: numeric (L/kg). Do not append units.

// query State, in one line, measured Vd of "N#CC1(NC(=O)[C@@H]2CCCC[C@H]2C(=O)N2CCN(c3ccc(F)cc3)CC2)CC1"
// result 1.3

====

Reported fraction unbound by item:
experiment: Percentage unbound in human plasma; assay type: ADME, cell-free
Response field accepts a number only; no unit should be typed.

// query State, in one line, measured fraction unbound of "Cc1noc2cc(N3CCN(C(=O)[C@@H]4CCCC[C@H]4C(=O)NC4(C#N)CC4)[C@H](C)C3)ccc12"
// result 0.2

// query State, in one line, measured fraction unbound of "COc1ccc(N2CCN(C(=O)[C@@H]3CCCC[C@H]3C(=O)NC3(C#N)CC3)[C@H](C)C2)cc1OC"
// result 0.39

// query State, in one line, measured fraction unbound of "Cc1nn(C)c2ccc(N3CCN(C(=O)[C@@H]4CCCC[C@H]4C(=O)NC4(C#N)CC4)[C@H](C)C3)cc12"
// result 0.25

// query State, in one line, measured fraction unbound of "COc1cc(N2CCN(C(=O)[C@@H]3CCCC[C@H]3C(=O)NC3(C#N)CC3)[C@H](C)C2)ccc1C1CC1"
// result 0.081

// query State, in one line, measured fraction unbound of "Cc1nn(C)c2cc(N3CCN(C(=O)[C@@H]4CCCC[C@H]4C(=O)NC4(C#N)CC4)[C@H](C)C3)ccc12"
// result 0.28

// query State, in one line, measured fraction unbound of "COc1ccc(N2CCN(C(=O)[C@@H]3CCCC[C@H]3C(=O)NC3(C#N)CC3)[C@H](C)C2)nc1OC"
// result 0.24

// query State, in one line, measured fraction unbound of "COc1ccc(N2CCN(C(=O)[C@@H]3CCCC[C@H]3C(=O)NC3(C#N)CC3)CC2)cc1OC"
// result 0.45

// query State, in one line, measured fraction unbound of "Cc1nnc(C)c2cc(N3CCN(C(=O)[C@@H]4CCCC[C@H]4C(=O)NC4(C#N)CC4)[C@H](C)C3)ccc12"
// result 0.49

====

experiment: Metabolic stability of the compound in rat liver microsomes assessed as compound turnover after 120 mins
Reported microsomal CLint at 2 h by item:
Field: numeric (µL/min/mg). Do not append units.

// query State, in one line, measured microsomal CLint at 2 h of "N#CC1(NC(=O)[C@@H]2CCCC[C@H]2C(=O)N2CCN(c3ccccc3)CC2)CC1"
// result 107

// query State, in one line, measured microsomal CLint at 2 h of "N#CC1(NC(=O)[C@@H]2CCCC[C@H]2C(=O)N2CCN(c3ccc(F)cc3)CC2)CC1"
// result 35

====

experiment: Oral bioavailability in Alderley Park Han Wistar rat at 2 mg/kg; format: ADME, organism-based; conditions: in vivo
Reported bioavailability by item:
Field: numeric (%). Do not append units.

| structure_string | recorded_number |
| --- | --- |
| Cc1nn(C)c2ccc(N3CCN(C(=O)[C@@H]4CCCC[C@H]4C(=O)NC4(C#N)CC4)[C@H](C)C3)cc12 | 64 |
| COc1ccc(N2CCN(C(=O)[C@@H]3CCCC[C@H]3C(=O)NC3(C#N)CC3)CC2)cc1OC | 41 |
| COc1ccc(N2CCN(C(=O)[C@@H]3CCCC[C@H]3C(=O)NC3(C#N)CC3)CC2)cc1 | 3.5 |

Let's switch to this compound now.
// query State, in one line, measured bioavailability of "N#CC1(NC(=O)[C@@H]2CCCC[C@H]2C(=O)N2CCN(c3ccccc3)CC2)CC1"
// result 0.2

====

test: Metabolic stability of the compound in human liver microsomes assessed as compound turnover after 120 mins
assay_readout: microsomal CLint at 2 h (µL/min/mg)
Field: numeric (µL/min/mg). Do not append units.

| structure_string | microsomal CLint at 2 h, µL/min/mg |
| --- | --- |
| COc1ccc(N2CCN(C(=O)[C@@H]3CCCC[C@H]3C(=O)NC3(C#N)CC3)CC2)cc1OC | 2.3 |
| Cc1noc2cc(N3CCN(C(=O)[C@@H]4CCCC[C@H]4C(=O)NC4(C#N)CC4)[C@H](C)C3)ccc12 | 9.3 |

// query State, in one line, measured microsomal CLint at 2 h of "C[C@@H]1CN(c2ccc(S(C)(=O)=O)cc2)CCN1C(=O)[C@@H]1CCCC[C@H]1C(=O)NC1(C#N)CC1"
// result 9.4

====

assay: Metabolic stability of the compound in human liver microsomes assessed as compound turnover after 120 mins
Reported microsomal CLint at 2 h by item:
Field: numeric (µL/min/mg). Do not append units.

| structure_string | assay_readout | recorded_number |
| --- | --- | --- |
| COc1cc(N2CCN(C(=O)[C@@H]3CCCC[C@H]3C(=O)NC3(C#N)CC3)[C@H](C)C2)ccc1C1CC1 | microsomal CLint at 2 h | 9 |

// query State, in one line, measured microsomal CLint at 2 h of "COc1ccc(N2CCN(C(=O)[C@@H]3CCCC[C@H]3C(=O)NCC#N)CC2)cc1"
// result 7.1

// query State, in one line, measured microsomal CLint at 2 h of "C[C@@H]1CN(c2ccccc2)CCN1C(=O)[C@@H]1CCCC[C@H]1C(=O)NC1(C#N)CC1"
// result 20

====

Reported pIC50 by item:
biological target: Cathepsin K (Homo sapiens); assay: Inhibition of human recombinant cathepsin-k using Z-Phe-Arg-AMC as substrate preincubated for 15 mins measured after 1 hr by QFRET assay
Sequence (P43235 whole entry): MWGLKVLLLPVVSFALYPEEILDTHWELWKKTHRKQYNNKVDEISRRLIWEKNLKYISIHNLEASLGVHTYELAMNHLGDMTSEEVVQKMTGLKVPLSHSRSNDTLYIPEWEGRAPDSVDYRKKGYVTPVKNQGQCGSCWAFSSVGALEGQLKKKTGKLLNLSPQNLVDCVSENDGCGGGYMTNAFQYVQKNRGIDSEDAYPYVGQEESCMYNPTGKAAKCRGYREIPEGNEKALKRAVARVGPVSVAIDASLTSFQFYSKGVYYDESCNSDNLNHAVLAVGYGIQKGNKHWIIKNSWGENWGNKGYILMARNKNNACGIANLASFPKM
Bear in mind: pIC50 is minus log10 of a mol/L concentration; give just that figure.

Recorded results for 3 compounds are shown here.
| structure_string | assay_readout | recorded_number |
| --- | --- | --- |
| CS(=O)(=O)c1ccc(N2CCN(C(=O)[C@@H]3CCCC[C@H]3C(=O)NC3(C#N)CC3)CC2)cc1 | pIC50 | 7.74 |
| N#CCNC(=O)[C@@H]1CCCC[C@H]1C(=O)N1CCN(c2ccc(C#N)cc2)CC1 | pIC50 | 7.60 |
| COc1ccc(N2CCN(C(=O)[C@@H]3CCCC[C@H]3C(=O)NC3(C#N)CC3)[C@H](C)C2)cc1OC | pIC50 | 8.40 |

Let's switch to this compound now.
// query Fetch value of pIC50 on Cathepsin K (Homo sapiens) for "C[C@@H]1CN(c2ccc(S(C)(=O)=O)cc2)CCN1C(=O)[C@@H]1CCCC[C@H]1C(=O)NC1(C#N)CC1" .
// result 7.92
